test system: Sonic hedgehog protein (Shh); assay: small-molecule binders of Shh protein, primary screen, biochemical, small-molecule microarray, 635/667 nm fluorescence (AID 1151); conditions: small-molecule microarray binding, 635 nm fluorescence; higher = more signal;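 further: Shh protein binding to compounds spotted on small-molecule microarray slides; score combines spot fluorescence intensity with signal-to-noise across triplicate slides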
Think of 1 as a floor: if composite z-score stands on it or above, it is yes (1); beneath it, no (0).

>>> category("CN(C)CCCC[C@@H]1NC(=O)[C@@H]2C[C@H](C(=O)NCCCCCCNC(=O)CS)[C@H](c3cccc(OCCO)c3)N2C1=O")
"no (0)"
>>> category("CCCCCN1CC=CC23O[C@@H]4C=CCOC(=O)[C@@H]4[C@H]2C(=O)N(CCCCCO)[C@@H]3C1=O (some centres undefined)")
"no (0)"
>>> category("CCOC(=O)C1=CCC(c2cc3ccccc3[nH]2)N(S(=O)(=O)c2ccccc2[N+](=O)[O-])C1 (centres undefined)")
"no (0)"
>>> category("C=CCOC(=O)[C@H]1[C@@H]2C(=O)O[C@@H](c3ccccc3)[C@@H](c3ccccc3)N2[C@@H](c2ccc(OCCOC(=O)[C@@H]3C[C@@H]4C(=O)N[C@@H](Cc5ccccc5)C(=O)N4[C@@H]3c3ccc(O)cc3)cc2)[C@]12C(=O)Nc1ccccc12")
"yes (1)"
>>> category("CCCCC=C[C@@H](NC(=O)c1ccc(C(F)(F)F)cc1)c1ccccc1")
"no (0)"
>>> category("[N-]=[N+]=NCc1ccccc1C[C@]1(C(=O)O)COC(c2ccc(OCCCO)cc2)=N1")
"no (0)"

Please indicate if the recorded composite z-score for CCCCN1CC=CC23O[C@@H]4C=CCOC(=O)[C@@H]4[C@H]2C(=O)N(C(CO)C(C)C)[C@@H]3C1=O (some centres undefined) meets or exceeds 1. no (0)

Please tell me: is the molecule `O=C1c2ccccc2[C@@]2(Cc3ccccc3N(Cc3ccccc3)C2=O)[C@H](c2ccc(CO)cc2)N1Cc1ccccc1` at or over 1 in terms of composite z-score? no (0)

In plain terms: is recorded composite z-score at least 1 for `C=CCNC(=O)[C@@H]1[C@H]2C(=O)O[C@H](c3ccccc3)[C@H](c3ccccc3)N2[C@H](c2ccc(O)cc2)[C@@]12C(=O)Nc1ccc(C#CC3(O)CCCCCC3)cc12` ? yes (1)

composite z-score >= 1 for `CCCC=C(CCC)[C@@H](NS(=O)(=O)c1ccc(Cl)cc1)c1ccccc1` ? no (0)

Is the recorded value of composite z-score equal to or greater than 1 for this molecule? `O=C1O[C@@H](c2ccccc2)[C@@H](c2ccccc2)N2[C@@H](c3ccc(O)cc3)[C@]3(C(=O)Nc4ccc(C#CC5=CCCCC5)cc43)[C@@H](C(=O)N3CCCCCCC3)[C@H]12` yes (1)

Please indicate if the recorded composite z-score for `C=CCNC(=O)[C@H]1[C@@H]2C(=O)O[C@@H](c3ccccc3)[C@@H](c3ccccc3)N2[C@@H](c2ccccc2OCCO)[C@]12C(=O)N(C(=O)OCCOC)c1ccccc12` meets or exceeds 1. yes (1)

Does composite z-score meet or surpass 1 for CC(C)C[C@H]1NC(=O)[C@@H](C)NC(=O)[C@@]23C(=O)N[C@@H](Cc4ccccc4)C2[C@H](C)[C@@]2(C)O[C@H]2C3/C=C/C/C=C\CNC1=O (some centres undefined) ? yes (1)

Answer whether composite z-score of `[N-]=[N+]=NCc1ccccc1C[C@]1(C(=O)N2CCCCC2)N=C(c2ccc(OCCCO)cc2)O[C@H]1c1ccccc1` is greater than or equal to 1. no (0)
